assay: Selectivity index, ratio of CC50 for african green monkey Vero cells to EC50 for West Nile virus NY 1999; type: toxicity, cell-based; conditions: read-out: Ratio CC50/EC50
parameter_measured: selectivity ratio

Please report the recorded selectivity ratio for O=S1(=O)CS/C(=N\C(=S)N(c2ccccc2)c2ccccc2)N1c1ccccc1 .
> 100

---

tested on: Japanese encephalitis virus; experiment: Antiviral activity against Japanese encephalitis virus SA14-2-8 infected in african green monkey Vero cells assessed as reduction of virus yield relative to control; type: functional, organism-based
EC50 reference
Reply numerically in µM, unit not repeated.

[
  {
    "compound": "CC(C)N(C(=S)/N=C1\\SCS(=O)(=O)N1c1ccccc1)C(C)C",
    "tested_target": "Japanese encephalitis virus",
    "EC50 / µM": 8
  },
  {
    "compound": "O=S1(=O)CS/C(=N\\C(=S)N(Cc2ccccc2)Cc2ccccc2)N1c1ccccc1",
    "tested_target": "Japanese encephalitis virus",
    "EC50 / µM": 65
  },
  {
    "compound": "O=S1(=O)CS/C(=N\\C(=S)N(c2ccccc2)c2ccccc2)N1c1ccccc1",
    "tested_target": "Japanese encephalitis virus",
    "EC50 / µM": 7
  }
]

Hello, I am looking for reported EC50 with Japanese encephalitis virus for CC(C)N(C(=S)/N=C1\SC(C)S(=O)(=O)N1C)C(C)C (centres undefined) . Could you help?
30

Origin of values: ChEMBL document CHEMBL1150795
